Reported EC50 values for a set of molecules
# target-of-assay: human MC4R (Homo sapiens)
# Construct: host or cells: HEK-293 cells stably expressing the GScAMP22F split-luciferase cAMP sensor and hMC4R, G418 selection
# Sequence (P32245 whole entry): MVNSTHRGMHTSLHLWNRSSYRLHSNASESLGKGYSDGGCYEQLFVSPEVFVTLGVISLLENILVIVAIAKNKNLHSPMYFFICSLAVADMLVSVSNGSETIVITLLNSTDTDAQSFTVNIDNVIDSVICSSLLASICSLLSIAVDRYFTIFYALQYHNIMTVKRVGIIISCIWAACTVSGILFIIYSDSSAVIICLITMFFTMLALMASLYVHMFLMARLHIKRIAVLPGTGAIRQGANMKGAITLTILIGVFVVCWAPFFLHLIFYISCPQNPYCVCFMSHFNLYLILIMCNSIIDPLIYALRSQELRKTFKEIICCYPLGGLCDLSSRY
# assay-comment: split-luciferase cAMP sensor assay, agonist mode (measurement window 1), hMC4R
# Format: cell-based
# experimental-setup: agonist mode, hMC4R stable cell line; read-out: MC4R cAMP EC50
Positions of bridges follow the written chain, without caps; N, C: chain ends. Non-standard residues stand in square brackets, D forms with d. Residues, ends and D or L forms follow the SMILES beside them. dPhe(4-Br) = N[C@H](Cc1ccc(Br)cc1)C(=O)O; dPhe(4-I) = N[C@H](Cc1ccc(I)cc1)C(=O)O; Nle = CCCC[C@H](N)C(=O)O
Give your result in nM as a bare value.

Worked examples, 2 molecules total:
CCCC[C@H](NC(=O)[C@H](CCCNC(=N)N)NC(C)=O)C(=O)N[C@H]1CSSC[C@@H](C(N)=O)NC(=O)[C@@H](Cc2c[nH]c3ccccc23)NC(=O)[C@H](CCCNC(=N)N)NC(=O)[C@@H](Cc2ccc(Br)cc2)NC(=O)[C@H](CCCNC(=N)N)NC1=O [CTX-1613] (Ac-R[Nle]CR[dPhe(4-Br)]R[dW]C-NH2; disulfide 3-8 (inferred))    1.9
CC(=O)N[C@@H](CCCNC(=N)N)C(=O)N[C@H]1CSSC[C@@H](C(N)=O)NC(=O)[C@H](Cc2ccccc2)NC(=O)[C@H](CCCNC(=N)N)NC(=O)[C@@H](Cc2ccc(Br)cc2)NC(=O)[C@H](CCCNC(=N)N)NC(=O)[C@@H](C)NC1=O [CTX-1258] (Ac-RC[dA]R[dPhe(4-Br)]RFC-NH2; disulfide 2-8)    2.4

Now consider a different molecule.
Challenge: Item CCCC[C@H](NC(C)=O)C(=O)N[C@H]1CSSC[C@@H](C(N)=O)NC(=O)[C@@H](Cc2c[nH]c3ccccc23)NC(=O)[C@H](CCCNC(=N)N)NC(=O)[C@@H](Cc2ccc(I)cc2)NC(=O)[C@H](Cc2c[nH]cn2)NC1=O [CTX-1234] (Ac-[Nle]CH[dPhe(4-I)]R[dW]C-NH2; disulfide 2-7 (inferred)) : provide EC50
Response given: 2.6
